assay: CCTE_Shafer_MEA_acute_burst_number: CCTE's Neural Acute Assay for Single-Electrode Bursts, Shafer Lab (AID 2284013)
Activity calls are given as the source filed them. Rule for the calls: active = hit-call score of the fitted dose curve at least 0.9, where 1 is the maximum; inactive = score below 0.9.
Select the matching outcome among active, inactive

INSERT INTO measurements (compound, group_label) VALUES
  ('Cc1ccccc1OP(=O)(Oc1ccccc1C)Oc1ccccc1C', 'inactive'),
  ('CC(C)[C@@H](Nc1ccc(C(F)(F)F)cc1Cl)C(=O)OC(C#N)c1cccc(Oc2ccccc2)c1 (stereo not given in full)', 'inactive'),
  ('Oc1ccc(Cc2ccc(O)cc2)cc1', 'active'),
  ('CS(=O)(=O)c1ccc(C(=O)C2C(=O)CCCC2=O)c(Cl)c1COCC(F)(F)F', 'inactive');

Now, please, on to the next compound.
*Q* Query: recorded result category for CC1(C)[C@H](C(=O)O[C@H](C#N)c2cccc(Oc3ccccc3)c2)[C@@H]1/C=C(\Cl)C(F)(F)F in this test
*A* inactive

###

read-out: Collagen III, COL3A1 (gene 1281); assay: BSK_MyoF_CollagenIII: BioMAP Diversity Plus: MyoF Assay for Collagen III Biomarker Activity (AID 2284239); details: primary human lung fibroblasts
The source made the active and inactive calls. The calls were made as follows: active = hit-call score of the fitted dose curve at least 0.9, where 1 is the maximum; inactive = score below 0.9.
Select the matching outcome among 1 (yes) (active), 0 (no) (inactive)

INSERT INTO measurements (compound, group_label) VALUES
  ('O=C(O)COc1cc(Cl)c(Cl)cc1Cl', '0 (no)');

*Q* Query: recorded result category for CCC(C)(C#N)N=NC(C)(C#N)CC (stereo not drawn) in this test
*A* 0 (no)

*Q* Query: recorded result category for Cc1ccccc1OP(=O)(Oc1ccccc1)Oc1ccccc1 in this test
*A* 1 (yes)

*Q* Query: recorded result category for Cc1cc(C(C)(C)c2ccc(O)c(C)c2)ccc1O in this test
*A* 1 (yes)

*Q* Query: recorded result category for CCOP(=O)(OCC)OC(=CCl)c1ccc(Cl)cc1Cl in this test
*A* 1 (yes)

*Q* Query: recorded result category for O=C(CCl)NCO in this test
*A* 0 (no)

*Q* Query: recorded result category for CCOC(=O)CC(=O)CCl in this test
*A* 0 (no)

*Q* Query: recorded result category for c1ccc(-c2cccc(-c3ccccc3)c2)cc1 in this test
*A* 1 (yes)

*Q* Query: recorded result category for CCCCN(CCCC)C(=S)[S-].CCCCN(CCCC)C(=S)[S-].[Ni+2] in this test
*A* 0 (no)

*Q* Query: recorded result category for CC1(C)[C@H](C(=O)O[C@H](C#N)c2cccc(Oc3ccccc3)c2)[C@@H]1/C=C(\Cl)C(F)(F)F in this test
*A* 0 (no)

*Q* Query: recorded result category for CC(C)(C)c1cc([N+](=O)[O-])cc(C(C)(C)C)c1O in this test
*A* 1 (yes)

*Q* Query: recorded result category for Cc1cccc(OP(=O)(Oc2cccc(C)c2)Oc2cccc(C)c2)c1 in this test
*A* 0 (no)

*Q* Query: recorded result category for CCOC(=O)C(SP(=S)(OC)OC)c1ccccc1 (stereo not drawn) in this test
*A* 0 (no)

*Q* Query: recorded result category for CCOP(=S)(OCC)SCS(=O)(=O)C(C)(C)C in this test
*A* 0 (no)

*Q* Query: recorded result category for Nc1c(Oc2ccccc2)cc(O)c2c1C(=O)c1ccccc1C2=O in this test
*A* 0 (no)

*Q* Query: recorded result category for O=[N+]([O-])c1ccc(Nc2ccccc2)cc1 in this test
*A* 0 (no)

###

test: BSK_SAg_Proliferation: Cell Proliferation Assessment in the BioMAP Diversity Plus: SAg Assay (AID 2283095); conditions: primary human HUVEC with PBMC;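 note: relative cell number as total protein by SRB absorbance in sub-confluent culture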
Calls of active or inactive are those of the source. Rule for the calls: active = hit-call score of the fitted dose curve at least 0.9, where 1 is the maximum; inactive = score below 0.9.
Select the matching outcome among active, inactive

Before answering, review these 4 worked examples.
INSERT INTO assay_data (compound, group_label) VALUES
  ('Cc1ccc2nc3sc(=O)sc3nc2c1', 'active'),
  ('CC(C)O.CC(C)O.OCCN(CCO)CCO.OCCN(CCO)CCO.[Ti]', 'inactive'),
  ('C=CC(Cl)CCl (stereo not given)', 'inactive'),
  ('Nc1ccc(N)cc1', 'inactive');

*Q* Query: recorded result category for CC(C)(C)c1ccccc1O in this test
*A* inactive

###

target: Mitogen-activated protein kinase 3 (Homo sapiens) (UniProt P27361); assay: NVS_ENZ_hMAPK3: NovaScreen (NVS) Enzymatic Assay for human Mitogen-Activated Protein Kinase 3 (MAPK 3) (AID 2283177)
Sequence (P27361 whole entry, looked up): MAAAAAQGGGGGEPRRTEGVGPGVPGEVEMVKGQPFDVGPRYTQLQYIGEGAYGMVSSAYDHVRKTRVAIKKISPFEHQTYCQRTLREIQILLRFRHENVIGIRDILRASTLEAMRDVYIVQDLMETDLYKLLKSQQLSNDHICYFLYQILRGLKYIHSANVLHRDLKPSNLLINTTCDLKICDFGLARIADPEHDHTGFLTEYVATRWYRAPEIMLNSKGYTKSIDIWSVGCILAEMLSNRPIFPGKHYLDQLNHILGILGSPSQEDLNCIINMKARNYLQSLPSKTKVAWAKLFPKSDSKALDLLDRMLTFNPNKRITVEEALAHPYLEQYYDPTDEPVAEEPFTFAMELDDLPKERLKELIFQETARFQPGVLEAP
Records with an inconclusive call do not appear. Active and inactive are the calls of the source. The calls were made as follows: active = hit-call score of the fitted dose curve at least 0.9, where 1 is the maximum; inconclusive = response in the unintended direction; inactive = score below 0.9.
readout_type: AC50

Observe how each entry below is paired with its result.
INSERT INTO assay_data (compound, tested_target, reading) VALUES
  ('COc1nn(C(=O)NS(=O)(=O)c2ccccc2OC(F)(F)F)c(=O)n1C', 'Mitogen-activated protein kinase 3 (Homo sapiens) (UniProt P27361)', 'inactive'),
  ('O=C(N[C@H]1CN2CCC1CC2)c1ccc2c(c1)OCCO2', 'Mitogen-activated protein kinase 3 (Homo sapiens) (UniProt P27361)', 'inactive'),
  ('N#Cc1cccnc1', 'Mitogen-activated protein kinase 3 (Homo sapiens) (UniProt P27361)', 'inactive'),
  ('CC(C)O.CC(C)O.OCCN(CCO)CCO.OCCN(CCO)CCO.[Ti]', 'Mitogen-activated protein kinase 3 (Homo sapiens) (UniProt P27361)', '2.87 nM (active)');

*Q* Consider the compound O=C1c2ccccc2C(=O)C1C(=O)C(c1ccccc1)c1ccc(Cl)cc1 (stereo not given) and give its measured AC50.
*A* inactive

###

biological target: Bile acid receptor (Homo sapiens) (UniProt Q96RI1); experiment: ATG_IR1_CIS: Attagene CIS-FACTORIAL HepG2 Assay for human Nuclear Receptor Subfamily 1 Group H Member 4 (NR1H4), IR1 submotif (AID 2282946); conditions: IR1 reporter transcription, actives raise or lower the signal
Sequence (Q96RI1 whole entry, looked up): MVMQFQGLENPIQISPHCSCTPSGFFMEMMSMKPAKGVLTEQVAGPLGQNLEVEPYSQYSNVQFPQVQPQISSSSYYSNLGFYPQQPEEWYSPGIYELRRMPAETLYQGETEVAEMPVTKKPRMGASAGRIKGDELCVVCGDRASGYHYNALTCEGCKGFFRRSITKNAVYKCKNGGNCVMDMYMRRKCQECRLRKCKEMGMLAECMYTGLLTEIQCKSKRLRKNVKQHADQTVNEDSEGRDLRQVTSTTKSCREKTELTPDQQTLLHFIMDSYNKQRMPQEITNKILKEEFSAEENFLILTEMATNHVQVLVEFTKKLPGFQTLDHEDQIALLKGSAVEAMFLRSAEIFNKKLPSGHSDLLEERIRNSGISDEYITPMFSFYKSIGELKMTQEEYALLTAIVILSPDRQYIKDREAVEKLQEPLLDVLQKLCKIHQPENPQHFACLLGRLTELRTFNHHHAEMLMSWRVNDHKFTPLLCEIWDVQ
Activity calls are given as the source filed them. How the source made its calls: active means hit-call score of the fitted dose curve at least 0.9, where 1 is the maximum; inactive means score below 0.9.
Select the matching outcome among active, inactive

Before answering, review these 3 worked examples.
INSERT INTO measurements (compound, tested_target, group_label) VALUES
  ('Brc1ccc(Br)cc1', 'Bile acid receptor (Homo sapiens) (UniProt Q96RI1)', 'inactive'),
  ('N#CCCC(Br)(C#N)CBr (centres undefined)', 'Bile acid receptor (Homo sapiens) (UniProt Q96RI1)', 'active'),
  ('C#CCOC(=O)/C=C(C)/C=C/CC(C)CCCC(C)C (centres undefined)', 'Bile acid receptor (Homo sapiens) (UniProt Q96RI1)', 'inactive');

*Q* Query: recorded result category for c1ccc2c(c1)Oc1ccccc1O2 in this test
*A* inactive

###

read-out: Tumor necrosis factor (Homo sapiens); experiment: BSK_BT_xTNFa: BioMAP Diversity Plus: BT Assay for Tumor necrosis factor alpha (TNF-alpha) Biomarker Activity (AID 2284230); conditions: primary human B cells with PBMC
Activity calls are given as the source filed them. The calls were made as follows: active = hit-call score of the fitted dose curve at least 0.9, where 1 is the maximum; inactive = score below 0.9.
Select the matching outcome among active, inactive

INSERT INTO results (compound, group_label) VALUES
  ('CC1(C)[C@H](C(=O)O[C@H](C#N)c2cccc(Oc3ccccc3)c2)[C@@H]1/C=C(\Cl)C(F)(F)F', 'inactive');

*Q* Query: recorded result category for O=c1oc2ccccc2c(O)c1C(CC(O)c1ccc(-c2ccc(Br)cc2)cc1)c1ccccc1 (stereo not drawn) in this test
*A* inactive

*Q* Query: recorded result category for COCC(=O)N(c1c(C)cccc1C)[C@H](C)C(=O)OC in this test
*A* inactive

###

assay: ATG_PXRE_CIS: Attagene CIS-FACTORIAL HepG2 Assay for human Pregnane X Receptor Element (PXRE) (AID 2282957); conditions: HepG2 Attagene CIS-FACTORIAL PXRE reporter, mRNA; actives raise or lower the signal
Activity calls are given as the source filed them. The calls were made as follows: active = hit-call score of the fitted dose curve at least 0.9, where 1 is the maximum; inactive = score below 0.9.
Select the matching outcome among active, inactive

Before answering, review these 5 worked examples.
INSERT INTO measurements (molecule, group_label) VALUES
  ('CCN(CC)C(=O)C(Cl)=C(C)OP(=O)(OC)OC', 'active'),
  ('CCCCCCCCCCCCN(C)C', 'active'),
  ('ClCCN1CCOCC1', 'inactive'),
  ('CCOP(=S)(OCC)Oc1ccc(Cl)cc1Cl', 'active'),
  ('CC(C)[N+](=O)[O-]', 'inactive');

*Q* Query: recorded result category for CCCCC(CC)C(=O)Cl (stereo not given) in this test
*A* inactive

*Q* Query: recorded result category for O=S1(=O)OC(c2cc(Br)c(O)c(Br)c2)(c2cc(Br)c(O)c(Br)c2)c2ccccc21 in this test
*A* active

*Q* Query: recorded result category for Brc1c(Br)c(Br)c(Oc2c(Br)c(Br)c(Br)c(Br)c2Br)c(Br)c1Br in this test
*A* inactive

*Q* Query: recorded result category for CN(N=O)c1ccc([N+](=O)[O-])cc1 in this test
*A* active

*Q* Query: recorded result category for CNC(=O)CSP(=O)(OC)OC in this test
*A* inactive

*Q* Query: recorded result category for C[C@@H]1O[C@@H](O[C@H]2C[C@@H](O)[C@]3(CO)[C@H]4[C@H](O)C[C@]5(C)[C@@H](C6=CC(=O)OC6)CC[C@]5(O)[C@@H]4CC[C@]3(O)C2)[C@H](O)[C@H](O)[C@H]1O in this test
*A* active

*Q* Query: recorded result category for C1CCC(C2CCCCC2)CC1 in this test
*A* inactive

*Q* Query: recorded result category for CN(N=O)C(N)=O in this test
*A* inactive

*Q* Query: recorded result category for O=C(O)C1(c2ccc3c(c2)OC[C@H](Cc2ccc(-c4ccccc4)cc2)[C@H]3O)CCCC1 in this test
*A* inactive
